# Tested on: Tov112D
# Assay text: Primary qHTS to identify gynecologic anti-cancer compounds using libraries of approved drugs and bioactive compounds (AID 1345084); note: % is set by controls: 0 for no effect and ±100 for the full control effect; nearly all actives have a fitted effect of over 55% in size
# Conditions: Gynecologic cancer cell panel viability, ATPlite luminescence, 48 h; series mostly up to 57.5 µM
Results filed as inconclusive are left out. Calls of active or inactive are those of the source. Calls come from the whole dose curve; as a rule, active = well fitted cell-killing curve with a large enough effect; inconclusive = small, poorly fitted or top-dose-only effect, or effect the other way; inactive = flat fitted curve, though single readings scatter.

Compound: COc1cc2c(cc1O)C1(OC)Cc3ccc4c(c3C1N(C)CC2)OCO4 (stereo unspecified)
activity change, negative = cytotoxicity: inactive
--
Compound: CC(=O)OC1C=C(C(=O)O)C2(CO)CCC(C)C(C)(CCc3ccoc3)C2C1 (stereo unspecified)
activity change, negative = cytotoxicity: inactive
--
Compound: CC1(C)CC2C(O)C3=C(CC(C)(O)C2C1)C(=O)OC3O (stereo unspecified)
activity change, negative = cytotoxicity: inactive
--
Compound: C[C@@H]1O[C@@H](O[C@H]2[C@H](O[C@H]3CC[C@@]4(C)C(CC[C@]5(C)C4CC=C4[C@@H]6CC(C)(C)CC[C@]6(C(=O)O)CC[C@]45C)[C@]3(C)CO)OC[C@H](O)[C@@H]2O)[C@H](O)[C@H](O[C@@H]2OC[C@@H](O)[C@H](O)[C@H]2O)[C@H]1O (stereo partly specified)
activity change, negative = cytotoxicity: 4.64% [at 11.6 µM] (inactive)
--
Compound: CC(=O)NC(CCC(=O)O)C(=O)NCCc1ccc(O)cc1 (stereo unspecified)
activity change, negative = cytotoxicity: inactive
--
Compound: CC1=CC(=O)CC(C)(C)C1CCC(C)OC1OC(COC(=O)c2cc(O)c(O)c(O)c2)C(O)C(O)C1O (stereo unspecified)
activity change, negative = cytotoxicity: inactive
